Measured pIC50 accompanies every entry in the list below.
# System: 435261-313-R-J1-PDC tumor spheroid viability
# test protocol: Anticancer human tumor 435261-313-R-J1-PDC patient-derived colon adenocarcinoma cell line growth inhibition [PI3K]
# condition set: curve of first compound; second compound 1 µM; spheroids with HUVEC and MSC
pIC50: −log10 of the molar value.

compound: Cn1ncnc1[C@H]1c2n[nH]c(=O)c3cc(F)cc(c23)N[C@@H]1c1ccc(F)cc1 + COc1c(OCCCN2CCOCC2)ccc2c3n(c(=NC(=O)c4cnc(N)nc4)nc12)CCN3
pIC50: > 9.50

compound: CC(=O)c1c(C)c2cnc(Nc3ccc(N4CCNCC4)cn3)nc2n(C2CCCC2)c1=O + Cc1nc(NC(=O)N2CCCC2C(N)=O)sc1-c1ccnc(C(C)(C)C(F)(F)F)c1
pIC50: > 9.50

compound: C[C@@H](NC(=O)c1ncnc(N)c1Cl)c1ncc(C(=O)Nc2cc(C(F)(F)F)c(Cl)cn2)s1 + COc1c(OCCCN2CCOCC2)ccc2c3n(c(=NC(=O)c4cnc(N)nc4)nc12)CCN3
pIC50: > 7.50

compound: CC1(C)CCC(Nc2ncc(C(F)(F)F)c(-c3c[nH]c4c(P(C)(C)=O)c(C#N)ccc34)n2)CN1 (stereo unspecified) + CC(Nc1ncnc2nc[nH]c12)c1cc2cccc(Cl)c2c(=O)n1-c1ccccc1
pIC50: 5.81

compound: Cn1nccc1Nc1nccc(-c2ccn(C(CO)c3ccc(Cl)c(F)c3)c(=O)c2)n1 (stereo unspecified) + CC(Nc1ccc2c(c1)OCCn1cc(N3C(=O)OCC3C(F)F)nc1-2)C(N)=O
pIC50: > 7.50

compound: CC(Cn1ccc(-c2ccc(C#N)c(Cl)c2)n1)NC(=O)c1cc(C(C)O)[nH]n1 (stereo unspecified) + CC(Nc1ccc2c(c1)OCCn1cc(N3C(=O)OCC3C(F)F)nc1-2)C(N)=O
pIC50: > 7.50

====

# Tested on: 435261-313-R-J1-PDC tumor spheroid viability
# test protocol: Anticancer human tumor 435261-313-R-J1-PDC cell line growth inhibition [PI3K];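 note: spheroids exposed to compounds for 7 days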
# condition set: curve of first compound; second compound 0.00316 µM; spheroids with HUVEC and MSC

molecule: C[C@@H](NC(=O)c1ncnc(N)c1Cl)c1ncc(C(=O)Nc2cc(C(F)(F)F)c(Cl)cn2)s1 + COc1c(OCCCN2CCOCC2)ccc2c3n(c(=NC(=O)c4cnc(N)nc4)nc12)CCN3
IC50: > 10 µM
//
molecule: CNC(=O)c1ccc(N2C(=S)N(c3ccc(C#N)c(C(F)(F)F)c3)C(=O)C2(C)C)cc1F + CC(Nc1ccc2c(c1)OCCn1cc(N3C(=O)OCC3C(F)F)nc1-2)C(N)=O
IC50: > 10 µM
//
molecule: Cn1ncnc1[C@H]1c2n[nH]c(=O)c3cc(F)cc(c23)N[C@@H]1c1ccc(F)cc1 + CC(Nc1ccc2c(c1)OCCn1cc(N3C(=O)OCC3C(F)F)nc1-2)C(N)=O
IC50: > 0.1 µM

====

# Test system: 435261-313-R-J1-PDC tumor spheroid viability
# test protocol: Anticancer human tumor 435261-313-R-J1-PDC cell line growth inhibition [PI3K]; active = viability on the fitted dose curve at most 10% of control; inactive = the rest;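 note: spheroids exposed to compounds for 7 days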
# condition set: second compound 0.1 µM; first compound 3.16 µM; spheroids with HUVEC and MSC
Classes used: TRUE (active), FALSE (inactive)

molecule: Cn1nccc1Nc1nccc(-c2ccn(C(CO)c3ccc(Cl)c(F)c3)c(=O)c2)n1 (stereo not given) + Cc1nc(NC(=O)N2CCCC2C(N)=O)sc1-c1ccnc(C(C)(C)C(F)(F)F)c1
discrete label: FALSE
//
molecule: CC(Cn1ccc(-c2ccc(C#N)c(Cl)c2)n1)NC(=O)c1cc(C(C)O)[nH]n1 (stereo not given) + Cc1nc(NC(=O)N2CCCC2C(N)=O)sc1-c1ccnc(C(C)(C)C(F)(F)F)c1
discrete label: FALSE
//
molecule: C=CC(=O)N1CCN(c2nc(=O)n(-c3c(C)ccnc3C(C)C)c3nc(-c4c(O)cccc4F)c(F)cc23)C(C)C1 (stereo not given) + Cc1nc(NC(=O)N2CCCC2C(N)=O)sc1-c1ccnc(C(C)(C)C(F)(F)F)c1
discrete label: FALSE
//
molecule: Cn1nccc1Nc1nccc(-c2ccn(C(CO)c3ccc(Cl)c(F)c3)c(=O)c2)n1 (stereo not given) + COc1c(OCCCN2CCOCC2)ccc2c3n(c(=NC(=O)c4cnc(N)nc4)nc12)CCN3
discrete label: TRUE
//
molecule: CCCS(=O)(=O)Nc1ccc(F)c(C(=O)c2c[nH]c3ncc(-c4ccc(Cl)cc4)cc23)c1F + Cc1nc(NC(=O)N2CCCC2C(N)=O)sc1-c1ccnc(C(C)(C)C(F)(F)F)c1
discrete label: FALSE

meta.source: PubChem BioAssay AID1963976
